- experimental system: human ether-à-go-go-related gene (hERG) potassium channel (human, UniProt Q12809);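 also: peak tail current of the secondary pulse compared with the same well before compound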
- Sequence (Q12809 whole entry, looked up): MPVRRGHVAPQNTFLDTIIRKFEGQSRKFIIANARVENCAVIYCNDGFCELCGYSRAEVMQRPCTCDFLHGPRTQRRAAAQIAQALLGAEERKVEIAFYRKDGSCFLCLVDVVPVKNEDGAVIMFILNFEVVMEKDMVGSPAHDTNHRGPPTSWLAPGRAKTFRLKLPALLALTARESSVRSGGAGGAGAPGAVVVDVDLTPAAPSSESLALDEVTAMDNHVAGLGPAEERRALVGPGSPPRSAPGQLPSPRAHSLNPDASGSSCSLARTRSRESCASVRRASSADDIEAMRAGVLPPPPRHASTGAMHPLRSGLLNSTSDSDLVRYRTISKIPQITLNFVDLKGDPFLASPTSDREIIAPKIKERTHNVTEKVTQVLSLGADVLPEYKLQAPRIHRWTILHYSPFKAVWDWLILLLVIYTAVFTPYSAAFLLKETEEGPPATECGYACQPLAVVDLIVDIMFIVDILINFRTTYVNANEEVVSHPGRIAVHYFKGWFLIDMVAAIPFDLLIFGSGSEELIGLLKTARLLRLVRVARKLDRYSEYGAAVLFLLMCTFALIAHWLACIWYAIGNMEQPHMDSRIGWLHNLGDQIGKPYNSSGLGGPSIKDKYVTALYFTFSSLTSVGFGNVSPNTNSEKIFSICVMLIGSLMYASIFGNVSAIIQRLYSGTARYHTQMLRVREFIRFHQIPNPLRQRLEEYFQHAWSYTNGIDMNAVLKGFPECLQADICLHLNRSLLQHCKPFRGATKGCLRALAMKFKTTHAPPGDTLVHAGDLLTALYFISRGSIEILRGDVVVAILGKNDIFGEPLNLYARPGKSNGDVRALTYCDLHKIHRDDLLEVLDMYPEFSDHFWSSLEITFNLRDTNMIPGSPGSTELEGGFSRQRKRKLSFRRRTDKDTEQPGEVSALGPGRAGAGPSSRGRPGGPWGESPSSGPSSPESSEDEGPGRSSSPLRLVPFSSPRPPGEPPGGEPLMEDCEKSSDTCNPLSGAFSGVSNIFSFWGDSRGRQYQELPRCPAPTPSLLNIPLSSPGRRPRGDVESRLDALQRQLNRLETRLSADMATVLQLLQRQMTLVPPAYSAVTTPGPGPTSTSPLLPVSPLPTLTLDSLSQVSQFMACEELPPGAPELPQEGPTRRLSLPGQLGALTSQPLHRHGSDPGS
- protocol: primary screen, population patch clamp on CHO cells stably expressing hERG; higher = less effect of the substance
The whole screen tested about 310,000 compounds, of which about 14,000 (4.5%) showed an effect of 50% or more. Effects have a minus sign here. What follows is part of a selection rich in strong results, with near analogues and random picks from the rest.
measured endpoint: hERG current change (%, negative = inhibition) at 10uM (%)
Number in %, nothing else.

{"mol smiles": "Cc1nn(-c2ccccc2)c(C)c1C(=O)OCC(=O)Nc1ccccc1", "experimental system": "human ether-à-go-go-related gene (hERG) potassium channel (human, UniProt Q12809)", "quantitative readout": -7.85}
{"mol smiles": "COc1ccc(NC(=O)CSc2nnc3ccc(-c4cccnc4)nn23)cc1", "experimental system": "human ether-à-go-go-related gene (hERG) potassium channel (human, UniProt Q12809)", "quantitative readout": -46.4}
{"mol smiles": "COc1cc2c(cc1OC)CN(C(=O)/C=C/c1ccc(F)cc1)CC2", "experimental system": "human ether-à-go-go-related gene (hERG) potassium channel (human, UniProt Q12809)", "quantitative readout": -22.2}
{"mol smiles": "COc1cc2c(cc1OC)CN(C(=O)/C=C/c1ccc([N+](=O)[O-])cc1)CC2", "experimental system": "human ether-à-go-go-related gene (hERG) potassium channel (human, UniProt Q12809)", "quantitative readout": -55.1}
{"mol smiles": "Cc1ccc(NC(=O)CSc2nnc(-c3cccnc3)n2-c2ccc(C)cc2)cc1", "experimental system": "human ether-à-go-go-related gene (hERG) potassium channel (human, UniProt Q12809)", "quantitative readout": -21.4}
{"mol smiles": "C=CCn1c(SCC(=O)N2CCN(c3ccccc3)CC2)nc2c([nH]c3ccccc32)c1=O", "experimental system": "human ether-à-go-go-related gene (hERG) potassium channel (human, UniProt Q12809)", "quantitative readout": 13.3}
{"mol smiles": "COc1cc2c(cc1OC)CN(C(=O)/C=C/c1cccc([N+](=O)[O-])c1)CC2", "experimental system": "human ether-à-go-go-related gene (hERG) potassium channel (human, UniProt Q12809)", "quantitative readout": -31.2}
{"mol smiles": "Nc1nnc(SCC(=O)Nc2ccc(F)c(Cl)c2)n1-c1ccccc1", "experimental system": "human ether-à-go-go-related gene (hERG) potassium channel (human, UniProt Q12809)", "quantitative readout": -70.7}

Pending compound:
In: Give the reported value of hERG current change (%, negative = inhibition) at 10uM for this record: "C=CCn1c(SCC(=O)N2CCN(CCO)CC2)nc2sc3c(c2c1=O)CCC3"
Out: -20.9
